- Test system: 786-0 renal
- procedure.text: NCI tumour cell line growth inhibition, 48 h; in the data active means GI50 below about 0.43 µM; inactive means the rest
Outcomes: active, inactive

| compound | tgt | class.name |
| --- | --- | --- |
| COc1ccc(OCC(O)CN2CCN(c3ccc(Cl)cc3)CC2)cc1 (stereo unspecified) | 786-0 renal | inactive |
| CCCCC[C@@H](C/C=C/CCC(=O)NC/C(=C/Cl)[C@H]1C(=O)C(C)(C)C(=O)[C@@H](C)[C@@]1(C)O)OC | 786-0 renal | inactive |
| C=C(Cl)[C@@](Cl)(CBr)CC[C@@H](Br)C(C)(C)Cl | 786-0 renal | active |
| COc1cc(N(CCC#N)CCC#N)ccc1/C(N=Nc1ccc(C(=O)O)cc1)=N/NC(=O)c1cc(Br)ccc1O | 786-0 renal | inactive |
| COc1cc2cc3c(c(O)c2c(O)c1-c1c(OC)cc2cc4c(c(O)c2c1O)C(=O)O[C@H](C)C4)C(=O)O[C@H](C)C3 | 786-0 renal | inactive |
| c1cncc(C2ONC3=NCCN32)c1 (stereo unspecified) | 786-0 renal | inactive |

---

Recorded measurements of TGI, one per entry
- System: HT29 colon
- procedure.text: NCI tumour cell line growth inhibition, 48 h

| molecule | TGI |
| --- | --- |
| CC(NNC(=O)c1ccncc1)c1ccc(Cl)cc1Cl (stereo unspecified) | > 100 µM |
| COc1ccc(CC[N+]2(C)COc3cc4oc(=O)cc(C)c4cc3C2)cc1OC (stereo unspecified) | > 100 µM |
| O=C(C(=O)c1cc(Br)ccc1O)c1cc(Br)ccc1O | > 100 µM |
| CCOC(=O)c1c(-c2ccccc2)c(C)cn1C | > 10 µM |
| O=C(O)C1(C(O)c2ccccc2)SCCCS1 (stereo unspecified) | > 10 µM |
| COc1cc2c(cc1OC)C(=O)N(c1ccc(OCCN3CCCC3)cc1)C2=O | > 100 µM |
| C=C1CC/C=C(\C)CC[C@H](C(=C)C)[C@@H](O)/C=C(/CO)CCC1O (stereo partly specified) | > 100 µM |
| O=CC1=CCC2c3[nH]c4ccccc4c3CCN2C1 (stereo unspecified) | 273 µM |
| COc1cccc(CCCNC(=O)Cc2ccccc2CO)c1 | > 100 µM |
| CC(=O)C(C(C)=O)[C@H]1OC(C)(C)O[C@H]1[C@H]1COC(C)(C)O1 | > 100 µM |
| O=C(Oc1ccc2c(c1)CN(Cc1ccccc1)CO2)c1ccccc1 | 40.8 µM |
| NC(N)=N/N=C(/c1ccccc1)c1ccccc1F | 11.5 µM |
| NC(=O)c1ncn(C2OC(CO)C(O)C2O)c1N (stereo unspecified) | > 100 µM |
| O=C(/C=C(\[O-])c1ccccc1)CCCCCCC(=O)/C=C(\[O-])c1ccccc1.O=C(/C=C(\[O-])c1ccccc1)CCCCCCC(=O)/C=C(\[O-])c1ccccc1.O=C(/C=C(\[O-])c1ccccc1)CCCCCCC(=O)/C=C(\[O-])c1ccccc1.[Nd+3].[Nd+3] | > 50 µM |
| CC(C)=CC(=O)c1c(C(=O)O)nc2ccccc2[n+]1[O-] | > 100 µM |
| Cc1ccc(-n2cc(-c3ccc(Cl)cc3)c3c(=N)n(N)cnc32)cc1 | 20.6 µM |
| CCCCCCCCCCCCCCCC(=O)OCC1OC(n2cc(F)c(=O)[nH]c2=O)C(NC(=O)N(CCCl)N=O)C(O)C1O (stereo unspecified) | 14.1 µM |
| COc1ccc(-c2cc(-c3ccco3)c(C#N)c(=O)[nH]2)cc1 | > 100 µM |
| COc1ccc(Cc2nc3cc(OC)c(OC)cc3c(=O)[nH]2)cc1 | > 100 µM |
| N#CCCN(CCC#N)c1ccc(C=Nc2ccc(F)cc2)cc1 | > 100 µM |
| Cc1cc(=O)n2nc(CSc3nnc(Sc4cc(O)ccc4O)s3)sc2n1 | > 100 µM |
